# ASSAY_TARGET: monoamine oxidase (MAO), isoform not stated
# PROTOCOL_TEXT: MAO inhibition assay (procedure cited to earlier paper; enzyme source not given)
VALUE_KIND: pIC50
Recall that pIC50 is obtained by taking minus log10 of the concentration measured in molar.

Would you kindly share the measured pIC50 for O=CN/C=C\c1ccc(O)cc1 [compound 11, (Z)-N-(4-hydroxystyryl)formamide] ? 4.21
